Hello, the source for this data is patent US12485169B2, in case you need it.

Experimental target: Purified ERAP1 (37-941)-10His (ERAP1) (Homo sapiens, UniProt Q9NZ08)
Construct: Purified ERAP1 (37-941)-10His (ERAP1)
Sequence (Q9NZ08 37-941): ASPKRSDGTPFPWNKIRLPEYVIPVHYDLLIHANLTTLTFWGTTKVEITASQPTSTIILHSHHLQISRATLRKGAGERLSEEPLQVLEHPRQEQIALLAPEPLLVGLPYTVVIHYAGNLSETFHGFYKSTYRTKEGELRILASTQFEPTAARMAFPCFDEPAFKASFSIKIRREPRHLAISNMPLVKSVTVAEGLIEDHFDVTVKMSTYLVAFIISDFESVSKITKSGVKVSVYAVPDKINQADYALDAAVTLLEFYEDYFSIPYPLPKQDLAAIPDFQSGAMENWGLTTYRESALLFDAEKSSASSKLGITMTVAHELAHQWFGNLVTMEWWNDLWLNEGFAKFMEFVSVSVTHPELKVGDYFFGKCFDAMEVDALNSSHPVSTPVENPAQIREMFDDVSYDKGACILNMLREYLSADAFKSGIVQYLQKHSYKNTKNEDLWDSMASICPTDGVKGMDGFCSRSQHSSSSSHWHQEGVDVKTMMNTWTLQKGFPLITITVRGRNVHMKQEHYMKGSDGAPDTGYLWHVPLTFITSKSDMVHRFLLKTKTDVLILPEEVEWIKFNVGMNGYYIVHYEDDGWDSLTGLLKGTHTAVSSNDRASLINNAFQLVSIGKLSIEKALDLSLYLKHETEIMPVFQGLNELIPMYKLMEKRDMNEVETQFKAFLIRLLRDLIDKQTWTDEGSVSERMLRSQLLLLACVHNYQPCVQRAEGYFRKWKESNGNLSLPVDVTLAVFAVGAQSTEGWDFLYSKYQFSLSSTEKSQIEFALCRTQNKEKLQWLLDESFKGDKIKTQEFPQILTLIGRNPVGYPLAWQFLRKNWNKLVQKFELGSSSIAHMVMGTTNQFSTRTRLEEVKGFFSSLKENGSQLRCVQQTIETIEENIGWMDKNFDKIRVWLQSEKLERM
Protocol notes: ERAP1 mediated hydrolysis of an amide substrate (10-mer inhibition assay), biochemical system
Condition context: 10-mer substrate, 23° C., 1 h, excitation 279 nm / emission 355 nm; read-out: IC50 vs Decapeptide WRVYEKC(Dnp)ALK-acid (where Dnp is Dinitrophenyl maleimide) (10-mer)
pIC50: −log10 of the molar value.
Measurement label: pIC50

1. O=C(O)c1ccc(C2CC2)c(S(=O)(=O)Nc2cc(-n3cnnn3)c(Cl)cc2N2CCCCC2)c1    > 6.30
2. CCc1ccc(C(=O)O)cc1S(=O)(=O)Nc1cc(-c2c[nH]nn2)ccc1N1CCCCC1    > 6.30
3. CCc1ccc(C(=O)O)cc1S(=O)(=O)Nc1cc(-n2cnnn2)ccc1N1CCC[C@@H](F)C1    > 6.30
4. COc1ccc(C(=O)O)cc1S(=O)(=O)Nc1cc(C(F)(F)F)ccc1N1CCC(OC)C(C)(C)C1 (stereo not shown)    > 6.30
5. COc1ccc(C(=O)O)cc1S(=O)(=O)Nc1cc(C(F)(F)F)ccc1N1CCC(O)C1 (stereo not shown)    > 5.30
6. CCc1ccc(C(=O)O)cc1S(=O)(=O)Nc1cc(C(F)(F)F)ccc1N1CCCC(F)(F)C1    > 6.30
7. COc1ccc(C(=O)O)cc1S(=O)(=O)Nc1cc(C(F)(F)F)ccc1N1CCC(C)(O)C1 (stereo not shown)    > 5.30
8. CS(=O)(=O)c1ccc(C(=O)O)cc1S(=O)(=O)Nc1cc(C(F)(F)F)ccc1N1CCCCC1    < 5.30
9. N#Cc1ccc(N2CCCCC2)c(NS(=O)(=O)c2cc(C(=O)O)ccc2C2CCC2)c1    > 6.30
10. CCc1ccc(C(=O)O)cc1S(=O)(=O)Nc1cc(-n2cnnn2)ccc1N1CCC[C@H](O)C1    > 6.30
11. CCc1ccc(C(=O)O)cc1S(=O)(=O)Nc1cc(-c2cnoc2C)c(Cl)cc1N1CCCCC1    > 6.30
12. CCc1ccc(C(=O)O)cc1S(=O)(=O)Nc1cc(-c2ccno2)ccc1N1CCCCC1    > 6.30
13. O=C(O)c1ccc(C2CC2)c(S(=O)(=O)Nc2cc(-n3cnnn3)ccc2N2CCCCC2)c1    > 6.30
14. COc1ccc(C(=O)O)cc1S(=O)(=O)Nc1cc(C(F)(F)F)ccc1N1CCC[C@@H](F)C1    > 6.30
15. CCc1ccc(C(=O)O)cc1S(=O)(=O)Nc1cc(C(F)(F)F)ccc1N1CC(C)(O)C1    > 5.30
16. N#Cc1ccc(N2CCC(C#N)CC2)c(NS(=O)(=O)c2cc(C(=O)O)ccc2C2CC2)c1    > 6.30
17. COc1ccc(C(=O)O)cc1S(=O)(=O)Nc1cc(C(F)(F)F)ccc1N1CC2(CCO2)C1    > 5.30
18. CCc1ccc(C(=O)O)cc1S(=O)(=O)Nc1cc(C(F)F)ccc1N1CCCCC1    > 6.30
19. N#Cc1cc(NS(=O)(=O)c2cc(C(=O)O)ccc2C2CC2)c(N2CCCCC2)cc1Cl    > 6.30
20. Cc1ccc(C(=O)O)cc1S(=O)(=O)Nc1cc(C(F)(F)F)ccc1N1CCCOCC1    < 5.30
21. CCc1ccc(C(=O)O)cc1S(=O)(=O)Nc1cc(-c2ccnnc2)ccc1N1CCCCC1    > 6.30
22. CCc1ccc(C(=O)O)cc1S(=O)(=O)Nc1cc(-n2cnnn2)ccc1N1CC(C)(O)C1    > 6.30
23. N#CC1CCN(c2ccc(C(F)(F)F)cc2NS(=O)(=O)c2cc(C(=O)O)ccc2C2CC2)CC1    > 6.30
24. CCc1ccc(C(=O)O)cc1S(=O)(=O)Nc1cc(C#N)ccc1N1CCC[C@@H](O)C1    > 6.30
25. COc1ccc(C(=O)O)cc1S(=O)(=O)Nc1cc(C(F)(F)F)ccc1N1CCC(O)C(F)(F)C1 (stereo not shown)    > 6.30
26. COc1ccc(C(=O)O)cc1S(=O)(=O)Nc1cc(C(F)(F)F)ccc1N1CCCC(OC)C1 (stereo not shown)    > 6.30
27. CCc1ccc(C(=O)O)cc1S(=O)(=O)Nc1cc(C#N)ccc1N1CCC(F)(F)CC1    > 6.30
28. COc1ccc(C(=O)O)cc1S(=O)(=O)Nc1cc(C(F)(F)F)ccc1N1CCC(C#N)CC1    > 6.30

---

Data export: IC50 values recorded with Purified ERAP1 (37-941)-10His (ERAP1) (Homo sapiens).
Measurement label: IC50

1. CC(C)c1ccc(C(=O)O)cc1S(=O)(=O)Nc1cc(C(F)(F)F)ccc1N1CCCCCC1 [Example 55]    < 500 nM
2. CCc1ccc(C(=O)O)cc1S(=O)(=O)Nc1cc(C#N)ccc1N1CCCC(O)C1 (stereo not shown) [Example 224]    < 500 nM
3. COc1ccc(C(=O)O)cc1S(=O)(=O)Nc1ccc(Cl)cc1N1CCCCC1 [Example 65]    < 500 nM
4. CCc1ccc(C(=O)O)cc1S(=O)(=O)Nc1cc(C(F)(F)F)ccc1N1CCCCCC1 [Example 61]    > 5000 nM

---

Measured IC50, listed per entry for reference.
Experimental target: Purified ERAP1 (37-941)-10His (ERAP1) (Homo sapiens)
Measurement label: IC50

1) COc1ccc(C(=O)O)cc1S(=O)(=O)Nc1cc(C(F)(F)F)ccc1N1CCC2(CCO2)CC1 [Example 186]    < 500 nM
2) COc1ccc(C(=O)O)cc1S(=O)(=O)Nc1cc(C(F)(F)F)ccc1N1CC(O)C1 [Example 37]    < 5000 nM
3) COc1ccc(C(=O)O)cc1S(=O)(=O)Nc1cc(C(F)(F)F)ccc1N1CC2CCC(C1)O2 [Example 7]    < 5000 nM
4) CCc1ccc(C(=O)O)cc1S(=O)(=O)Nc1cc(-c2cc[nH]n2)ccc1N1CCCCC1 [Example 276]    < 500 nM
5) CCc1ccc(C(=O)O)cc1S(=O)(=O)Nc1cc(-n2cnnn2)ccc1N1CCC[C@@H](O)C1 [Example 252]    < 500 nM
6) CCc1ccc(C(=O)O)cc1S(=O)(=O)Nc1cc(-c2cn[nH]c2)ccc1N1CCCCC1 [Example 301]    < 500 nM
7) COc1ccc(C(=O)O)cc1S(=O)(=O)Nc1cc(C#N)ccc1N1CCCC(F)(F)C1 [Example 233]    < 500 nM
8) COc1ccc(C(=O)O)cc1S(=O)(=O)Nc1cc(C(F)(F)F)ccc1N1CCCCC1(C)C [Example 31]    < 500 nM

---

Measured IC50, listed per entry for reference.
Experimental target: Purified ERAP1 (37-941)-10His (ERAP1) (Homo sapiens)
Measurement label: IC50

1. C[C@@H]1C[C@H](C)CN(c2ccc(C#N)cc2NS(=O)(=O)c2cc(C(=O)O)ccc2C2CC2)C1    < 500 nM
2. Cc1ccc(C(=O)O)cc1S(=O)(=O)Nc1cc(C(F)(F)F)ccc1N1CCCCC1    < 500 nM
3. COc1ccc(C(=O)O)cc1S(=O)(=O)Nc1cc(-n2cnnn2)ccc1N1CCCCC1    < 500 nM
4. O=C(O)c1cc(F)cc(S(=O)(=O)Nc2cc(C(F)(F)F)ccc2N2CCCCC2)c1    < 500 nM
5. CCc1ccc(C(=O)O)cc1S(=O)(=O)Nc1cc(-c2ccn(C)n2)ccc1N1CCCCC1    < 500 nM
6. CCc1ccc(C(=O)O)cc1S(=O)(=O)Nc1cc(S(C)(=O)=O)ccc1N1CCCC(F)(F)C1    < 500 nM
7. COc1ccc(C(=O)O)cc1S(=O)(=O)Nc1cc(C(F)(F)F)ccc1N1CCCOCC1    < 500 nM
8. COc1ccc(C(=O)O)cc1S(=O)(=O)Nc1cc(C(F)(F)F)ccc1N1CCN(C(C)=O)CC1    > 5000 nM

---

Data export: IC50 values recorded with Purified ERAP1 (37-941)-10His (ERAP1) (Homo sapiens).
Measurement label: IC50

1. COc1ccc(C(=O)O)cc1NS(=O)(=O)c1cc(C(F)(F)F)ccc1N1CCCCC1    < 500 nM
2. CCc1ccc(C(=O)O)cc1S(=O)(=O)Nc1c(N2CCCCC2)ccc(-c2cnoc2C)c1F    < 500 nM
3. COc1ccc(C(=O)O)cc1NS(=O)(=O)c1cc(C(F)(F)F)ccc1N1CCOCC1    < 5000 nM
4. CCC1(O)CCN(c2ccc(C(F)(F)F)cc2NS(=O)(=O)c2cc(C(=O)O)ccc2OC)CC1    < 500 nM
5. CCc1ccc(C(=O)O)cc1S(=O)(=O)Nc1cc(S(C)(=O)=O)ccc1N1CCC[C@@H](O)C1    < 500 nM
6. CS(=O)(=O)c1ccc(N2CCCCC2)c(NS(=O)(=O)c2cc(C(=O)O)ccc2C2CC2)c1    < 500 nM
7. COc1ccc(-c2nn[nH]n2)cc1NS(=O)(=O)c1cc(C(F)(F)F)ccc1N1CCCCC1    < 5000 nM
8. CCc1ccc(C(=O)O)cc1S(=O)(=O)Nc1cc(C(F)(F)F)c(Br)cc1N1CCCCC1    < 500 nM
9. COc1ccc(C(=O)O)cc1S(=O)(=O)Nc1cc(C(F)(F)F)ccc1N1C[C@H](O)[C@@H](F)C1 (relative stereo)    < 5000 nM
10. COc1ccc(C(=O)O)cc1S(=O)(=O)Nc1cc(C(F)(F)F)ccc1N1CCC(F)(F)CC1    < 500 nM
11. CCOc1ccc(C(=O)O)cc1S(=O)(=O)Nc1cc(C(F)(F)F)ccc1N1CCCCC1    < 500 nM
12. CCc1ccc(C(=O)O)cc1S(=O)(=O)Nc1cc(-c2ccnn2C)ccc1N1CCCCC1    < 500 nM
13. CC(C)(C)c1ccc(C(=O)O)cc1S(=O)(=O)Nc1cc(C#N)ccc1N1CCCCC1    < 5000 nM
14. CCc1ccc(C(=O)O)cc1S(=O)(=O)Nc1cc(C#N)ccc1N1CCC(F)CC1    < 500 nM
15. COc1ccc(C(=O)O)cc1S(=O)(=O)Nc1cc(C(F)(F)F)ccc1N1CC(O)(C(F)(F)F)C1    < 500 nM
16. CCc1ccc(C(=O)O)cc1S(=O)(=O)Nc1cc(-n2cnnn2)ccc1N1CC(O)C1    < 500 nM
